Assay: Microsomal stability assay, human liver microsomes;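 note: pooled human liver microsomes at 0.25 mg/mL with 1 µM compound and NADPH at 37 °C, pH 7.4, for 30 min, unchanged parent quantified by LC-MS/MS against the 0 min sample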
Details: human liver microsomes
propertyLabel: HLM (µL/min/mg)
Numeric answer only, unit µL/min/mg assumed.

structurenotation=CC(=O)N[C@@H](Cc1ccc2c(c1)OCO2)[C@H](O)CN[C@H]1CC(C)(C)Oc2ncc(CC(C)(C)C)cc21 propertylabel=HLM unitsymbol=µL/min/mg obsvalue=24
structurenotation=COCC(=O)N[C@H](Cc1cccc(-c2nccs2)c1)[C@@H](O)CN[C@H]1CC2(CCC2)Oc2ccc(CC(C)(C)C)cc21 propertylabel=HLM unitsymbol=µL/min/mg obsvalue=137
structurenotation=CO[C@H](C)C(=O)N[C@@H](Cc1ccc2c(c1)OCO2)[C@H](O)CN[C@H]1CC(C)(C)Oc2ncc(CC(C)(C)C)cc21 propertylabel=HLM unitsymbol=µL/min/mg obsvalue=26
structurenotation=COCC(=O)N[C@@H](Cc1cc(F)cc(-c2nc(C)cs2)c1)[C@H](O)CN[C@H]1CC2(CCC2)Oc2ncc(CC(C)C)cc21 propertylabel=HLM unitsymbol=µL/min/mg obsvalue=249
structurenotation=CC(=O)N[C@@H](Cc1ccc(-c2cscn2)cc1)[C@H](O)CN[C@H]1CC2(CCC2)Oc2ncc(CC(C)(C)C)cc21 propertylabel=HLM unitsymbol=µL/min/mg obsvalue=110

For the next question, use this compound.
[ask] Supply reported HLM belonging to this compound: `Cc1cccc(CN2CCO[C@@H](C(=O)N[C@@H](Cc3ccc(F)cc3)[C@H](O)CN[C@H]3CC4(CCC4)Oc4ncc(CC(C)(C)C)cc43)C2)c1`
[reply] 662

Values compiled from patent US8163909B2.
